Test system: SNB-75 CNS
assay.summary: NCI-60 one-dose screen, 48 h
test.context: 10 µM unless noted
Compounds without any hit were thinned out: in the full panel of roughly 83,000, 20% have a hit. Activity calls are given as the source filed them. How the source made its calls: active means growth percent below 10; inactive means the rest.
Classes used: Y = active, N = inactive

>>> label_value("CN(C)CCCc1ccc(Nc2cnn(C)c(=O)c2Cl)cc1")
"N"
>>> label_value("Cc1cc(N=C(N)c2ccccc2)ccc1OCCCCCCCCn1ccnc1")
"N"
>>> label_value("COc1ccc(C2=Nc3c(N)nc(N)nc3NC(c3ccc(Oc4nc(Nc5ccc(F)cc5)nc(N(C)C)n4)c(OC)c3)C2)cc1 (stereo unspecified)")
"N"
>>> label_value("COc1ccc(-c2nc3ccccc3n2CC(=O)N=Nc2c(O)[nH]c3ccc(Br)cc23)cc1")
"N"
>>> label_value("S=C(Nc1ccc(OCc2nc3ccc(Cl)cc3[nH]2)cc1)NC1CCCCC1")
"N"
>>> label_value("O=C(c1ccc(Cl)cc1)C1[C@H](c2ccccc2Cl)[C@@H](c2ccccc2)NC12C(=O)Nc1ccc(Br)cc12 (stereo partly specified)")
"Y"
>>> label_value("O=C(c1ccc(O)cc1)C1[C@H](c2ccc(Cl)cc2)[C@@H](c2ccccc2)NC12C(=O)Nc1ccc(Br)cc12 (stereo partly specified)")
"Y"
>>> label_value("COc1cc2cc(C(=O)N3C[C@@H](CCl)c4c3cc(OC(=O)N(CCC(=O)N3CCN(C)CC3)[C@H]3CCSSC3)c3ccccc43)[nH]c2c(OC)c1OC")
"Y"
>>> label_value("CCOC(=O)/C(F)=C/C1CC1CCc1ccc(OCC)cc1 (stereo unspecified)")
"N"
>>> label_value("N#Cc1c(-c2ccc(F)cc2)nc(SCc2ccc(F)cc2)nc1N1CCNCC1")
"N"
>>> label_value("ClC(Cn1ncc2c(Nc3cccc(Br)c3)nc(SCCN3CCOCC3)nc21)c1ccc(Br)cc1 (stereo unspecified)")
"N"
>>> label_value("COc1ccc(-c2cc(C)nc3[nH]c(=O)sc23)cc1")
"Y"
>>> label_value("O=Cc1cncc(-c2ccc3ncnc(N4CCc5cc(F)c(Cl)cc54)c3c2)c1")
"Y"
>>> label_value("CCN(C(=O)CN1C(=O)/C(=C/c2ccco2)SC1=S)C1CCS(=O)(=O)C1 (stereo unspecified)")
"N"
>>> label_value("COc1ccc(C(=O)c2c(N)c(C#N)cn2-c2ccc([N+](=O)[O-])cc2)cc1")
"N"
>>> label_value("O=C(Nc1nc2ccccc2s1)Nc1ccccc1Cl")
"N"
>>> label_value("Cc1ccc2nc(COc3ccc(C(=O)NNC(=O)Nc4ccc(Cl)c(C(F)(F)F)c4)cc3)[nH]c2c1")
"N"
>>> label_value("NS(=O)(=O)c1cccc(Nc2nc(SCC(=O)c3ccc(F)cc3)nc3ccccc23)c1")
"N"
>>> label_value("CCN1C(=O)N(CC)C2NNC(Sc3c(C(=O)O)c4ccccc4n(CC(C)C)c3=O)=NC21 (stereo unspecified)")
"N"
>>> label_value("O=C(N/N=C/c1c[nH]c2ccccc12)Nc1ccccc1Cl")
"Y"
>>> label_value("COC(=O)c1c(C(=O)OC)c2c3ccccc3c3ccccc3n2c1C(=O)C(C)(C)C")
"N"
